pKi tested on KOR (Cavia porcellus): recorded values
Scale: pKi equals -log10([C]), with [C] in mol/L.

CO[C@@]12CC[C@@H](N[C@@H](CCC(=O)O)C(=O)O)[C@@H]3Oc4c(O)ccc5c4[C@@]31CCN(C)[C@@H]2C5.Cl.Cl [Compound 14b]: 5.90
CO[C@@]12CC[C@H](N[C@H](C(=O)O)C(C)C)[C@@H]3Oc4c(O)ccc5c4[C@@]31CCN(C)[C@@H]2C5 [Compound 7a]: 6.49

Read the next record carefully.
Consider the compound shown here: CO[C@@]12CC[C@@H](N[C@@H](CC(=O)O)C(=O)O)[C@@H]3Oc4c(O)ccc5c4[C@@]31CCN(C)[C@@H]2C5 [Compound 13b] What is its recorded pKi?
6.45
